Reported pIC50 values for a set of compounds
# SYSTEM: Kras and SOS1 (biotin-tagged human Kras loaded with GDP, His-tagged human SOS1) (Homo sapiens, UniProt P01116, G12D)
# Construct: made in house; host or cells: E. coli (stated for Kras only)
# Sequence (P01116 1-188 isoform P01116-2 G12D): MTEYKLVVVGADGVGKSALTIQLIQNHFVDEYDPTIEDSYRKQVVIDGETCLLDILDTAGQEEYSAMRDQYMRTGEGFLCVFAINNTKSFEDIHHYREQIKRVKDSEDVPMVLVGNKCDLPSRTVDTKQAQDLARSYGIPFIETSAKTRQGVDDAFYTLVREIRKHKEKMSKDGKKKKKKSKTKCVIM
# MEASUREMENT DESCRIPTION: Protein-protein interaction inhibition between Kras and SOS1 (KrasGl2D-SOS PPI) using AlphaScreen
# Assay type: binding
# PROTOCOL CONDITIONS: AlphaScreen; biotin-tagged human Kras loaded with GDP, His-tagged human SOS1; read-out: KRAS G12D-SOS PPI IC50
Starred links: 1 amine or outer side, 2 acyl side, 3 side chain; linkers in the order of their positions; H or OH if unused. Positions of bridges follow the written chain, without caps; N, C: chain ends. Non-standard residues stand in square brackets, D forms with d. Residues, ends and D or L forms follow the SMILES beside them. *: point of attachment. hPhe(3-Cl-4-CF3) = N[C@@H](CCc1ccc(C(F)(F)F)c(Cl)c1)C(=O)O; hPhe(4-CF3) = N[C@@H](CCc1ccc(C(F)(F)F)cc1)C(=O)O; NMePhe(4-Cl) = CN[C@@H](Cc1ccc(Cl)cc1)C(=O)O; NMePhe(4-Me) = CN[C@@H](Cc1ccc(C)cc1)C(=O)O; NMedβ3hAla = C[C@H](CC(=O)[*:2])N(C)[*:1]; NMeGly(cPent) = CN[C@H](C(=O)O)C1CCCC1; NMeChg = CN[C@H](C(=O)O)C1CCCCC1; NMeI = CC[C@H](C)[C@H](NC)C(=O)O; NMeD = CN[C@@H](CC(=O)O)C(=O)O; NMeL = CN[C@@H](CC(C)C)C(=O)O; Trifluoroethyl = FC(F)(F)C*; NMeS = CN[C@@H](CO)C(=O)O; NMeA = CN[C@@H](C)C(=O)O; NMeAib = CNC(C)(C)C(=O)O; Piperidide = C1CCN(*)CC1; Pyrrolidide = C1CCN(*)C1; dNMeA = CN[C@H](C)C(=O)O; Ac5c = NC1(C(=O)O)CCCC1; Aze = O=C(O)[C@@H]1CCN1; Sar = CNCC(=O)O
A value of pIC50 is the negative decimal logarithm of a concentration given in moles per litre.

COMPOUND	PROPERTY NAME	RESULT VALUE
CC[C@H](C)[C@@H]1NC(=O)[C@H](C)N(C)C(=O)C[C@@H](C(=O)N2CCCC2)NC(=O)[C@H](CC(C)C)N(C)C(=O)[C@H](Cc2ccccc2)NC(=O)[C@H](CC(C)C)NC(=O)[C@H](CCc2ccc(C(F)(F)F)cc2)NC(=O)CN(C)C(=O)[C@H](Cc2ccc(Cl)cc2)N(C)C(=O)CN(C)C(=O)CN(C)C1=O [Compound 1085] ([NMeA]I[Sar][Sar][NMePhe(4-Cl)][Sar][hPhe(4-CF3)]LF[NMeL]D-Pyrrolidide; lactam N-11)	pIC50	7.30
CC[C@H](C)[C@@H]1NC(=O)[C@H](CC(C)C)N(C)C(=O)C[C@@H](C(=O)N2CCCCC2)N(C)C(=O)[C@H](C2CCCCC2)N(C)C(=O)C2(CCCC2)NC(=O)[C@@H]2CCCN2C(=O)[C@H](CCc2ccc(C(F)(F)F)c(Cl)c2)NC(=O)CN(C)C(=O)[C@H](COCC(F)(F)F)N(C)C(=O)CN(C)C(=O)CN(C)C1=O [Compound 732] ([NMeL]I[Sar][Sar][NMeS](Trifluoroethyl)[Sar][hPhe(3-Cl-4-CF3)]P[Ac5c][NMeChg][NMeD]-Piperidide; lactam N-11)	pIC50	8.85
CC[C@H](C)[C@@H]1NC(=O)[C@H](CC(C)C)N(C)C(=O)C[C@@H](C(=O)N(C)C)N(C)C(=O)[C@H](C2CCCC2)N(C)C(=O)C2(CCCC2)NC(=O)[C@@H]2CCCN2C(=O)[C@H](CCc2ccc(C(F)(F)F)c(Cl)c2)NC(=O)CN(C)C(=O)[C@H](Cc2ccc(C)cc2)N(C)C(=O)CN(C)C(=O)CN(C)C1=O [Compound 1779] ([NMeL]I[Sar][Sar][NMePhe(4-Me)][Sar][hPhe(3-Cl-4-CF3)]P[Ac5c][NMeGly(cPent)][NMeD]-NMe2; lactam N-11)	pIC50	9.28
CC[C@H](C)[C@@H]1NC(=O)[C@H](CC(C)C)N(C)C(=O)C[C@@H](C(=O)N2CCCCC2)N(C)C(=O)[C@H]([C@@H](C)CC)N(C)C(=O)C2(CCCC2)NC(=O)[C@@H]2CCCN2C(=O)[C@H](CCc2ccc(C(F)(F)F)c(Cl)c2)NC(=O)CN(C)C(=O)[C@H](Cc2ccc(C)cc2)N(C)C(=O)CN(C)C(=O)CN(C)C1=O [Compound 1649] ([NMeL]I[Sar][Sar][NMePhe(4-Me)][Sar][hPhe(3-Cl-4-CF3)]P[Ac5c][NMeI][NMeD]-Piperidide; lactam N-11)	pIC50	9.38

In: Report pIC50 for CC[C@H](C)[C@@H]1NC(=O)[C@H](CC(C)C)N(C)C(=O)C[C@@H](C)N(C)C(=O)[C@H](CC(C)C)NC(=O)C(C)(C)N(C)C(=O)[C@H](CC(C)C)NC(=O)[C@H](CCc2ccc(C(F)(F)F)c(Cl)c2)NC(=O)[C@@H](C)N(C)C(=O)[C@H](Cc2ccc(C)cc2)N(C)C(=O)[C@@H]2CCN2C(=O)CN(C)C1=O [Compound 1394] (cyclo([Aze][NMePhe(4-Me)][dNMeA][hPhe(3-Cl-4-CF3)]L[NMeAib]L[NMedβ3hAla][NMeL]I[Sar])) please.
Out: 6.89
